target: Voltage-dependent T-type calcium channel subunit alpha-1H (Homo sapiens) (UniProt O95180); experiment: Cav3.2 calcium influx blockers – cell-based, Fluo-4 calcium fluorescence, FDSS, MLSMR library, primary screen (AID 449739); conditions: Cav3.2-expressing cells, at 10 µM
Sequence (O95180 whole entry, looked up): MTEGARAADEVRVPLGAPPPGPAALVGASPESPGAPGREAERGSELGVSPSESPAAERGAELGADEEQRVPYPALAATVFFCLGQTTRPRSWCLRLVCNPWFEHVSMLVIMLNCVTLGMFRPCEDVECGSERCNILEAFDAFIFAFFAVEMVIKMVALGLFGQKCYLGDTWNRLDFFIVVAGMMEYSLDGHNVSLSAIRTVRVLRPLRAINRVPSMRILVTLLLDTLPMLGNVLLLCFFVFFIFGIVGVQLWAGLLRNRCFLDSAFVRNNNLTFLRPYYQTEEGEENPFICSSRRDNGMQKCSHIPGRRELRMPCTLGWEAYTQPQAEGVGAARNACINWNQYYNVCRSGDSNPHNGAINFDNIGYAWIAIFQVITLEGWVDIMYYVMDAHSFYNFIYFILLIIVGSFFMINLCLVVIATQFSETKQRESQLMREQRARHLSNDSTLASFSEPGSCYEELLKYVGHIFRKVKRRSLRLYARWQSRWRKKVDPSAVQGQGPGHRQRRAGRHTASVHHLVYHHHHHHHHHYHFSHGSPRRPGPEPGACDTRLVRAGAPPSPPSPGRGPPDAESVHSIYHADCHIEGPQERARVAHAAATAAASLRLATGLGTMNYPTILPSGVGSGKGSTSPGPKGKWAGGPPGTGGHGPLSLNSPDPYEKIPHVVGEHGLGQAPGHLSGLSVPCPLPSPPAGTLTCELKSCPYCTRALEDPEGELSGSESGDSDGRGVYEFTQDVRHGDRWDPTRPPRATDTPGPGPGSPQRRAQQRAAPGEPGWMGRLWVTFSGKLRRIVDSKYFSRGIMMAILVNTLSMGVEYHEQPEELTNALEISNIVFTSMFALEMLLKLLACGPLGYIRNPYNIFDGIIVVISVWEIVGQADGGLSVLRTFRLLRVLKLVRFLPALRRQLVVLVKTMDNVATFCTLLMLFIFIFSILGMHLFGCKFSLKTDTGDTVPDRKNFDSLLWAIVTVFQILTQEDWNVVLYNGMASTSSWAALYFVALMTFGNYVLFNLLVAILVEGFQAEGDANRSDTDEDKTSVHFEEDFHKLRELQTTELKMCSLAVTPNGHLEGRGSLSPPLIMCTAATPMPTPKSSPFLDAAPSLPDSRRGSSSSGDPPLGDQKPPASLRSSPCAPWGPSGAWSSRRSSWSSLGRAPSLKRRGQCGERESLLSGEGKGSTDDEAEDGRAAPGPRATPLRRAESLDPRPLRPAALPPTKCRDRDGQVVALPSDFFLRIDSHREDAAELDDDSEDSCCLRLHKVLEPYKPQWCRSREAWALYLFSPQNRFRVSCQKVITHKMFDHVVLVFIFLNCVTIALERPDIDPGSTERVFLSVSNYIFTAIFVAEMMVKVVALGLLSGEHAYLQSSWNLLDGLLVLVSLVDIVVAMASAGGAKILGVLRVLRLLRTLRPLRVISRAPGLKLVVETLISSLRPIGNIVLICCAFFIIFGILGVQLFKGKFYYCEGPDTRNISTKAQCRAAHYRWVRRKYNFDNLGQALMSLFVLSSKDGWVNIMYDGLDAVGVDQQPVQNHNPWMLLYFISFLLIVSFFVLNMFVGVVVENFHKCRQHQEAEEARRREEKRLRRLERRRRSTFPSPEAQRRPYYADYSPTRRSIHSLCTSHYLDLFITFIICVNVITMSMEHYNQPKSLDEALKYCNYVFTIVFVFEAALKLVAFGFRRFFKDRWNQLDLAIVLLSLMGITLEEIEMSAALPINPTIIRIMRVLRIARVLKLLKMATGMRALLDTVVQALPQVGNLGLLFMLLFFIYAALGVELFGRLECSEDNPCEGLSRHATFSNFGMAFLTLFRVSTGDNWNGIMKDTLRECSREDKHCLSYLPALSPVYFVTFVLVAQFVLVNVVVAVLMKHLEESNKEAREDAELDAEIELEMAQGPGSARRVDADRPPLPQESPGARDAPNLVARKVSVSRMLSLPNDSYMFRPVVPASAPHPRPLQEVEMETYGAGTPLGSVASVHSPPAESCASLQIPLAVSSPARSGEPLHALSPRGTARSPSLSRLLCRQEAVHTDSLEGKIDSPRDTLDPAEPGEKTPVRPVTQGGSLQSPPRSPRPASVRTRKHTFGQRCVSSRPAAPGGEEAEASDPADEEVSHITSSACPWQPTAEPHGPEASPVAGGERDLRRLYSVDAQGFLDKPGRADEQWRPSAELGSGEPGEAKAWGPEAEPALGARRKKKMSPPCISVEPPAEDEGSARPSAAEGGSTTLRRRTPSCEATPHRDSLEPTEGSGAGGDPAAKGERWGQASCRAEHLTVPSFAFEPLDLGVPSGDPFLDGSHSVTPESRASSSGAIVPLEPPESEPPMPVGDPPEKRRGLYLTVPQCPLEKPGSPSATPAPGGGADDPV
The whole screen tested about 100,000 compounds, of which about 4,200 (4.2%) were called active.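 Rule for the calls: active = single-dose well whose peak fluorescence ratio is a statistical outlier from its plate by either plate-standardised score or position-corrected B-score; inactive = the rest.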 The full list was thinned out, with actives kept by preference.
Outcome codes: active, inactive

• CNC(C)C#Cc1ccc2sc3cc(OC)c(OC)cc3c(=O)c2c1 (centres undefined) = inactive
• Cc1ccc(SCCN2C(=O)NC(C)(C)C2=O)cc1 = inactive
• COc1ccc(-c2n[nH]c(C)c2-c2ccc(OC)c(OC)c2)c(O)c1 = inactive
• Cc1nc(SCC(=O)c2ccccc2)c([N+](=O)[O-])[nH]1 = inactive
• Fc1ccc(CSc2nnc(-c3cc4c(s3)-c3ccccc3CC4)o2)cc1 = active
• COC(=O)c1ccc(Sc2ccc(F)cc2)c(N)c1 = inactive
• COc1ccc2c(c1)CCNC2Cc1ccc(OC)c(O)c1 (centres undefined) = inactive
• CCOC(=O)c1ccc(NC(=O)c2c(N)n(C)c(=O)[nH]c2=O)cc1 = inactive
• CCCCC(=O)Nc1nc(C)c(-c2csc(Nc3ccc(Cl)cc3)n2)s1 = inactive
• Cc1nc(C)c(-c2csc(NCCc3ccccc3)n2)s1 = active
• C(=N/N1CCN(c2ccccc2)CC1)/c1cccs1 = inactive
• CCOC(=O)C1=C(CN2CCc3ccccc32)NC(=O)NC1c1cccc([N+](=O)[O-])c1 (centres undefined) = inactive
• COc1ccccc1C1/C(=C(/O)c2ccc(OC(C)C)cc2)C(=O)C(=O)N1c1cc(C)on1 (centres undefined) = inactive
• CCOc1ccc(C(CCc2ccccc2)NC(=O)c2ccc(OC)c(OC)c2)cc1OCC (centres undefined) = inactive
